Tested on: Ehrlich ascites carcinoma
Experiment: Preventive effect against the growth of Ehrlich ascites carcinoma (Method A)
Assay type: in vivo, ICR mice
Conditions: 0.78 mg/kg/day i.p., once a day for 5 days
metric: Inhibition ratio (%)

>>> numeric_readout("COCCN(C(=O)N(CCCl)N=O)[C@H]1[C@@H](OC)O[C@H](CO)[C@@H](O)[C@@H]1O")
100
>>> numeric_readout("CO[C@H]1O[C@H](CO)[C@@H](O)[C@H](O)[C@H]1N(C)C(=O)N(CCCl)N=O")
100
>>> numeric_readout("CCCCN(C(=O)N(CCCl)N=O)[C@H]1[C@@H](OC)O[C@H](CO)[C@@H](O)[C@@H]1O")
34.1
>>> numeric_readout("CO[C@H]1O[C@H](CO)[C@@H](O)[C@H](O)[C@H]1N(CC(C)C)C(=O)N(CCCl)N=O")
100
>>> numeric_readout("CCCN(C(=O)N(CCCl)N=O)[C@H]1[C@@H](OC)O[C@H](CO)[C@@H](O)[C@@H]1O")
100

----------
A collection of compounds and their measured MTD
Assay: Preventive effect against the growth of Ehrlich ascites carcinoma (Method A)
Assay type: in vivo, ICR mice
Details: mouse, in vivo, ip; maximum dose showing 100% inhibition without causing death; i.p., once a day for 5 days; read-out: MTD (Maximum Tolerated Dose)
metric: MTD

>>> result("CO[C@H]1O[C@H](CO)[C@@H](O)[C@H](O)[C@H]1N(CC(C)C)C(=O)N(CCCl)N=O [Compound 3]")
"50 mg/kg/day"
>>> result("COCCN(C(=O)N(CCCl)N=O)[C@H]1[C@@H](OC)O[C@H](CO)[C@@H](O)[C@@H]1O [Compound 4]")
"50 mg/kg/day"
>>> result("CO[C@H]1O[C@H](CO)[C@@H](O)[C@H](O)[C@H]1N(C)C(=O)N(CCCl)N=O [Compound 5]")
"100 mg/kg/day"
>>> result("O=NN(CCCl)C(=O)N[C@@H]1O[C@H](CO)[C@@H](O)[C@H](O)[C@H]1O [GANU, reference compound]")
"12.5 mg/kg/day"
>>> result("CCCN(C(=O)N(CCCl)N=O)[C@H]1[C@@H](OC)O[C@H](CO)[C@@H](O)[C@@H]1O [Compound 2]")
"50 mg/kg/day"
>>> result("CCCCN(C(=O)N(CCCl)N=O)[C@H]1[C@@H](OC)O[C@H](CO)[C@@H](O)[C@@H]1O [Compound 1]")
"100 mg/kg/day"

----------
Test system: Ehrlich ascites carcinoma
Assay: Preventive effect against the growth of Ehrlich ascites carcinoma (Method A)
Type: in vivo, ICR mice
Conditions: 100 mg/kg/day i.p., once a day for 5 days
metric: the number of mice died / the number of mice used

>>> result("CO[C@H]1O[C@H](CO)[C@@H](O)[C@H](O)[C@H]1N(CC(C)C)C(=O)N(CCCl)N=O")
"4/5"
>>> result("O=NN(CCCl)C(=O)NC1CCCCC1 [CCNU, reference compound]")
"5/5"
>>> result("CCCN(C(=O)N(CCCl)N=O)[C@H]1[C@@H](OC)O[C@H](CO)[C@@H](O)[C@@H]1O")
"2/5"
>>> result("COCCN(C(=O)N(CCCl)N=O)[C@H]1[C@@H](OC)O[C@H](CO)[C@@H](O)[C@@H]1O")
"3/5"

----------
Entries and their measured Therapeutic index follow.
Test system: Ehrlich ascites carcinoma
Assay: Preventive effect against the growth of Ehrlich ascites carcinoma (Method A)
Type: in vivo, ICR mice
Conditions: MTD / MED
metric: Therapeutic index

>>> numeric_readout("CCCCN(C(=O)N(CCCl)N=O)[C@H]1[C@@H](OC)O[C@H](CO)[C@@H](O)[C@@H]1O")
64
>>> numeric_readout("COCCN(C(=O)N(CCCl)N=O)[C@H]1[C@@H](OC)O[C@H](CO)[C@@H](O)[C@@H]1O")
128
>>> numeric_readout("CO[C@H]1O[C@H](CO)[C@@H](O)[C@H](O)[C@H]1N(C)C(=O)N(CCCl)N=O")
128
>>> numeric_readout("CO[C@H]1O[C@H](CO)[C@@H](O)[C@H](O)[C@H]1N(CC(C)C)C(=O)N(CCCl)N=O")
64
>>> numeric_readout("O=NN(CCCl)C(=O)NC1CCCCC1 [CCNU, reference compound]")
4
>>> numeric_readout("CCCN(C(=O)N(CCCl)N=O)[C@H]1[C@@H](OC)O[C@H](CO)[C@@H](O)[C@@H]1O")
64
>>> numeric_readout("O=NN(CCCl)C(=O)N[C@@H]1O[C@H](CO)[C@@H](O)[C@H](O)[C@H]1O [GANU, reference compound]")
32

Entry source: patent US4472573A
